- System: CCRF-CEM
- ASSAY_EXPLANATION: Cytotoxicity against Homo sapiens (human) CEM cells after 5 days celltiter 96 aqueous assay
- Type: cell-based
- CONDITION_SET: 120 h
Answer each item with its documented IC50.
Give bare numbers, in µM.

compound="c1cc(C2=NNC(c3ccc(N4CCCCC4)cc3)C2)cs1 (configuration not stated)" reported_metric=IC50 recorded_number=27
compound="Cc1ccc(C2=NNC(c3ccc(N4CCCCC4)cc3)C2)s1 (configuration not stated)" reported_metric=IC50 recorded_number=15.3
compound="Cc1cc(C2=NNC(c3ccc(N4CCCCC4)cc3)C2)c(C)s1 (configuration not stated)" reported_metric=IC50 recorded_number=20.1
compound="Brc1ccc(C2=NNC(c3ccc(N4CCCCC4)cc3)C2)s1 (configuration not stated)" reported_metric=IC50 recorded_number=21.5
compound="Brc1ccsc1C1=NNC(c2ccc(N3CCCCC3)cc2)C1 (configuration not stated)" reported_metric=IC50 recorded_number=31.6

I need IC50 for every entry listed below, if you could help.
1. c1csc(C2=NNC(c3ccc(N4CCCCC4)cc3)C2)c1 (configuration not stated)
2. Cc1ccsc1C1=NNC(c2ccc(N3CCCCC3)cc2)C1 (configuration not stated)

[reply]
1. 6.9
2. 2.3

* * *

- Tested on: Vero
- ASSAY_EXPLANATION: Cytotoxicity against Chlorocebus aethiops (African green monkey) Vero cells after 5 days celltiter 96 aqueous assay
- Assay type: cell-based
- CONDITION_SET: Chlorocebus sabaeus, 120 h
REPORTED_METRIC: pIC50
Answers are plain numbers, as −log10 of the molar value.

Examples with answers:
compound=Cc1ccsc1C(=O)/C=C/c1ccc(N2CCCCC2)cc1 target_under_test=Vero reported_metric=pIC50 recorded_number=4.19
compound=O=C(/C=C/c1ccc(N2CCCCC2)cc1)c1sccc1Cl target_under_test=Vero reported_metric=pIC50 recorded_number=4.74
compound=O=C(/C=C/c1ccc(N2CCCCC2)cc1)c1cccs1 target_under_test=Vero reported_metric=pIC50 recorded_number=4.18

Could you tell me pIC50 for each of these compounds? They are listed below.
1. Brc1ccsc1C1=NNC(c2ccc(N3CCCCC3)cc2)C1 (stereo not drawn)
2. Cc1ccc(C(=O)/C=C/c2ccc(N3CCCCC3)cc2)s1
3. O=C(/C=C/c1ccc(N2CCCCC2)cc1)c1ccsc1
4. Clc1ccsc1C1=NNC(c2ccc(N3CCCCC3)cc2)C1 (stereo not drawn)
5. Brc1ccc(C2=NNC(c3ccc(N4CCCCC4)cc3)C2)s1 (stereo not drawn)
6. Cc1csc(C(=O)/C=C/c2ccc(N3CCCCC3)cc2)c1
7. O=C(/C=C/c1ccc(N2CCCCC2)cc1)c1sccc1Br

[reply]
1: 4.61; 2: 4.30; 3: 4.46; 4: 4.50; 5: 4.59; 6: 4.25; 7: 4.74

Look at each compound and report its pIC50.
1. Ic1ccc(C2=NNC(c3ccc(N4CCCCC4)cc3)C2)s1 (stereo not drawn)
2. Cc1ccsc1C1=NNC(c2ccc(N3CCCCC3)cc2)C1 (stereo not drawn)
3. Clc1cc(C2=NNC(c3ccc(N4CCCCC4)cc3)C2)c(Cl)s1 (stereo not drawn)

[reply]
1: 4.80; 2: 4.94; 3: 4.27

* * *

- Test system: CCRF-CEM
- ASSAY_EXPLANATION: Cytotoxicity against Homo sapiens (human) CEM cells after 5 days celltiter 96 aqueous assay
- Format: cell-based
- CONDITION_SET: 120 h
I'd be grateful if you could share measured IC50 for these entries.
One number for each entry, in µM.

Recorded IC50, per entry:
compound="Cc1csc(C2=NNC(c3ccc(N4CCCCC4)cc3)C2)c1 (stereo unspecified)" reported_metric=IC50 recorded_number=16.3
compound=O=C(/C=C/c1ccc(N2CCCCC2)cc1)c1sccc1Br reported_metric=IC50 recorded_number=12.5
compound="Clc1ccsc1C1=NNC(c2ccc(N3CCCCC3)cc2)C1 (stereo unspecified)" reported_metric=IC50 recorded_number=10.2
compound=Cc1cc(C(=O)/C=C/c2ccc(N3CCCCC3)cc2)c(C)s1 reported_metric=IC50 recorded_number=16.6
compound="Clc1cc(C2=NNC(c3ccc(N4CCCCC4)cc3)C2)c(Cl)s1 (stereo unspecified)" reported_metric=IC50 recorded_number=37.7

Count: 3. Required value per item: IC50.
1. O=C(/C=C/c1ccc(N2CCCCC2)cc1)c1cc(Cl)sc1Cl
2. O=C(/C=C/c1ccc(N2CCCCC2)cc1)c1ccc(Br)s1
3. Cc1csc(C(=O)/C=C/c2ccc(N3CCCCC3)cc2)c1

[reply]
1. 15
2. 52.8
3. 33.3
